Numbers sourced from the supplement of paper PMC10567573.

Would you mind telling me the reported protein stability index of each entry?
B1: CSTF3 (parent)
chain: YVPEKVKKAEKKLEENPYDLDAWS

Variants of: B1
Assay: protein stability index of a GFP-peptide fusion (GPS, HEK-293T) (PSI 1-6); higher = more stable;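 note: lentivirally expressed fusions sorted by FACS into six bins by GFP to DsRed ratio, PSI derived from sequencing read proportions per bin multiplied by bin number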
Recorded Conditions: c terminus: a fixed tail appended

For reference, reported protein stability index for `S24T` stands at 2.81

For reference, reported protein stability index for `K5G` stands at 2.25

For reference, reported protein stability index for `W23H` stands at 1.95

For reference, reported protein stability index for `D21W` stands at 2.24

For reference, reported protein stability index for `E14G` stands at 2.17

For reference, reported protein stability index for `A22D` stands at 1.67

For reference, reported protein stability index for `K12P` stands at 3.32

For reference, reported protein stability index for `L13R` stands at 2.67

For reference, reported protein stability index for `Y18L` stands at 2.15

For reference, reported protein stability index for `D19I` stands at 2.28

For reference, reported protein stability index for `E15K` stands at 3.45

For reference, reported protein stability index for `V6D` stands at 2.22

For reference, reported protein stability index for `A9P` stands at 4.02

For reference, reported protein stability index for `V2R` stands at 4.48

For reference, reported protein stability index for `S24W` stands at 1.66

For reference, reported protein stability index for `N16Q` stands at 2.24

For reference, reported protein stability index for `D19Q` stands at 3.34

For reference, reported protein stability index for `Y1P` stands at 5.24

For reference, reported protein stability index for `W23S` stands at 2.6

For reference, reported protein stability index for `D19E` stands at 2.57

For reference, reported protein stability index for `Y18Q` stands at 2.17

For reference, reported protein stability index for `L20V` stands at 3.2
